test system: Colo 205; assay: In vitro cytotoxicity, MTS assay, Colo 205; assay type: cell-based; conditions: Table 3; Colo 205 (colorectal)
metric: pIC50
The scale used: pIC50 is minus the common logarithm of the concentration in molar units.

Notebook entry, Colo 205 assay: pIC50 of CCc1c2c(nc3ccc(O)cc13)-c1cc3c(c(=O)n1C2)COC(=O)[C@]3(O)CC [7-ethyl-10-hydroxycamptothecin] = ? 7.10

###

system: SK-0V-3; test: In vitro cytotoxicity, MTS assay, SK-0V-3; assay type: cell-based; settings: 72 h
metric: IC50 (µM)
Quick reminder: number only, in µM, skip the unit.

Would you kindly share the measured IC50 for CCc1c2c(nc3ccc(OC(=O)N4CCC(N5CCCCC5)CC4)cc13)-c1cc3c(c(=O)n1C2)COC(=O)[C@]3(O)CC [CPT-11, Irinotecan, reference compound] ? 52

###

test system: OVCAR-8; test: In vitro cytotoxicity, MTS assay, OVCAR-8; format: cell-based; conditions: Homo sapiens, OVCAR-8, 72 h
metric: IC50 (µM)
Quick reminder: number only, in µM, skip the unit.

Would you kindly share the measured IC50 for CCc1c2c(nc3ccc(OC(=O)N4CCC(N5CCCCC5)CC4)cc13)-c1cc3c(c(=O)n1C2)COC(=O)[C@]3(O)CC [CPT-11, Irinotecan, reference compound] ? 9

###

test system: HT29; test: In vitro cytotoxicity, MTS assay, HT29; assay type: cell-based; conditions: Table 2; HT29, 72 hours; Compound 9 in 7-ethyl-10-hydroxycamptothecin equivalents; average ± SD (n = 3)
metric: pIC50
The scale used: pIC50 is minus the common logarithm of the concentration in molar units.

Would you kindly share the measured pIC50 for CCc1c2c(nc3ccc(O)cc13)-c1cc3c(c(=O)n1C2)COC(=O)[C@]3(O)CC [7-ethyl-10-hydroxycamptothecin] ? 7.00

###

test system: A2780; test: In vitro cytotoxicity, MTS assay, A2780; type: cell-based; conditions: Table 2; A2780, 72 hours; Compound 9 in 7-ethyl-10-hydroxycamptothecin equivalents; average ± SD (n = 3)
metric: pIC50
The scale used: pIC50 is minus the common logarithm of the concentration in molar units.

Would you kindly share the measured pIC50 for CCc1c2c(nc3ccc(O)cc13)-c1cc3c(c(=O)n1C2)COC(=O)[C@]3(O)CC [7-ethyl-10-hydroxycamptothecin] ? 7.70

###

tested on: OVCAR-3; test: In vitro cytotoxicity, MTS assay, OVCAR-3; type: cell-based; details: Homo sapiens; Table 3; OVCAR-3 (ovarian)
metric: IC50

Would you kindly share the measured IC50 for CCc1c2c(nc3ccc(OC(=O)N4CCC(N5CCCCC5)CC4)cc13)-c1cc3c(c(=O)n1C2)COC(=O)[C@]3(O)CC [CPT-11, Irinotecan, reference compound] ? 41 µM

###

test: Maximum tolerated dose (MTD) in nude mice; conditions: mouse, in vivo, multiple dose (q2d×5)
metric: MTD at 14 days (mg/kg)
Quick reminder: number only, in mg/kg, skip the unit.

Would you kindly share the measured MTD at 14 days for CCc1c2c(nc3ccc(OC(=O)N4CCC(N5CCCCC5)CC4)cc13)-c1cc3c(c(=O)n1C2)COC(=O)[C@]3(O)CC [CPT-11, Irinotecan, reference compound] ? 40

###

test system: ASPC-1; test: In vitro cytotoxicity, MTS assay, ASPC-1; type: cell-based; details: Homo sapiens, ASPC1, 72 h
metric: IC50 (µM)
Quick reminder: number only, in µM, skip the unit.

Would you kindly share the measured IC50 for CCc1c2c(nc3ccc(OC(=O)N4CCC(N5CCCCC5)CC4)cc13)-c1cc3c(c(=O)n1C2)COC(=O)[C@]3(O)CC [CPT-11, Irinotecan, reference compound] ? 33
